test system: MDA-MB-231; assay: kynurenine production, fold change vs DMSO IFNg/TNF control; higher = more kynurenine produced (less inhibition); conditions: pre-treatment time: 18 h then 24 h IFNg/TNF
property-measured: kynurenine production

A selection of reference data follows.
Query: Send back MDA-MB-231 kynurenine production of COC(=O)[C@]12OC[C@]34[C@H]([C@@H](O)[C@@H]1O)[C@@]1(C)CC(=O)C(O)=C(C)[C@@H]1C[C@H]3OC(=O)[C@H](OC(=O)C=C(C)C)[C@@H]24 [Brusatol] (compound dose: 10 uM) only.
Response: 0.118

Query: Param request: kynurenine production | system MDA-MB-231 | item C=C(C)[C@@H]1CC[C@]2(CO)CC[C@]3(C)[C@H](CC[C@@H]4[C@@]5(C)CC[C@H](O)C(C)(C)[C@@H]5CC[C@]43C)[C@@H]12 [Betulin] (compound dose: 2 uM)
Response: 0.826

Query: Look up and report kynurenine production, with MDA-MB-231 as system, for C[C@H]1O[C@@H](O[C@H]2[C@@H](O)C[C@H](O[C@H]3[C@@H](O)C[C@H](O[C@H]4CC[C@@]5(C)[C@H](CC[C@@H]6[C@@H]5C[C@@H](O)[C@]5(C)[C@@H](C7=CC(=O)OC7)CC[C@]65O)C4)O[C@@H]3C)O[C@@H]2C)C[C@H](O)[C@@H]1O [Digoxin] (compound dose: 10 uM)
Response: 0.103

Moving on to another compound below.
Query: Write down the reported kynurenine production (system: MDA-MB-231) of C[C@H](CC(=O)C[C@@H](C)[C@H]1C[C@H](O)[C@@]2(C)C3=C(C(=O)C[C@]12C)[C@@]1(C)CCC(=O)C(C)(C)[C@@H]1C[C@@H]3O)C(=O)O [Ganoderic acid A] (compound dose: 10 uM)
Response: 0.857

----------
test system: MDA-MB-231; experiment: kynurenine production, fold change vs DMSO IFNg/TNF control; higher = more kynurenine produced (less inhibition); details: pre-treatment time: 18 h then 24 h IFNg/TNF
Where kynurenine production equals or exceeds 0.8, the correct label is TRUE; where it does not, the label is FALSE.

Query: Test whether the compound C=C(C)[C@H]1CC=C(C)CC1 [(r)-(+)-limonene] (compound dose: 10 uM) records kynurenine production of 0.8 or higher.
Response: TRUE

Query: Could you tell me if the measured kynurenine production of CO[C@@H]1C=C2[C@@H]3CC(C)(C)CC[C@]3(CO)[C@H](O)C[C@@]2(C)[C@]2(C)CC[C@H]3[C@](C)(CO)[C@@H](O[C@@H]4O[C@H](C)[C@H](O)[C@H](O[C@@H]5O[C@H](CO)[C@@H](O)[C@H](O)[C@H]5O)[C@H]4O)CC[C@]3(C)[C@@H]12 [Saikosaponin B4] (compound dose: 10 uM) reaches 0.8 or more?
Response: TRUE

Query: Threshold query (kynurenine production >= 0.8) on CC(=O)OC/C1=C/[C@H]2[C@@H](OC(=O)/C=C/c3ccccc3)[C@@H](C)C[C@]2(OC(C)=O)C(=O)/C(C)=C/[C@@H]2[C@H](CC1)C2(C)C [Euphorbia factor L7a] (compound dose: 10 uM)
Response: TRUE

Further cases:
Query: Please check the record C[C@H]1O[C@@H](O[C@H]2CC[C@@]3(C)[C@@H](CC[C@]4(C)[C@@H]3C=C[C@]35OC[C@@]6(CCC(C)(C)C[C@H]63)[C@H](O)C[C@]54C)[C@]2(C)CO)[C@H](O)[C@@H](O[C@@H]2O[C@H](CO)[C@@H](O)[C@H](O)[C@H]2O)[C@H]1O [Saikosaponin D] (compound dose: 10 uM) and state if its kynurenine production is at or above 0.8.
Response: FALSE

Query: Quick check: does C[C@H](CC[C@@H](O[C@@H]1O[C@H](CO)[C@@H](O)[C@H](O)[C@H]1O)C(C)(C)O)[C@H]1CC[C@@]2(C)[C@@H]3CC=C4[C@@H](CC[C@H](O[C@@H]5O[C@H](CO)[C@@H](O)[C@H](O)[C@H]5O)C4(C)C)[C@]3(C)[C@H](O)C[C@]12C [Mogroside IIe] (compound dose: 10 uM) have kynurenine production greater than or equal to 0.8?
Response: TRUE

----------
What cell viability was measured for each of the following?
test system: MDA-MB-231; assay: cell viability relative to vehicle unstimulated control (fraction); higher = more viable cells; conditions: pre-treatment time: 18 h then 24 h IFNg/TNF

Use these answered entries as a reference point.
Query: For the compound COc1ccc(SC)cc1 [4-methoxythioanisole] (compound dose: 10 uM) , report cell viability.
Response: 0.965

Query: Tell me cell viability reported for COC(=O)[C@]1(C)CC[C@]2(C(=O)O[C@@H]3O[C@H](CO)[C@@H](O)[C@H](O)[C@H]3O)CC[C@]3(C)C(=CC[C@@H]4[C@@]5(C)C[C@H](O)[C@H](O[C@@H]6OC[C@@H](O[C@@H]7O[C@H](CO)[C@@H](O)[C@H](O)[C@H]7O)[C@H](O)[C@H]6O)[C@@](C)(CO)C5CC[C@]43C)[C@H]2C1 (some centres undefined) [Esculentoside H] (compound dose: 10 uM)
Response: 0.984

Query: For the compound C[C@H](CC[C@@H](O[C@@H]1O[C@H](CO[C@@H]2O[C@H](CO)[C@@H](O)[C@H](O)[C@H]2O)[C@@H](O)[C@H](O)[C@H]1O[C@@H]1O[C@H](CO)[C@@H](O)[C@H](O)[C@H]1O)C(C)(C)O)[C@H]1CC[C@@]2(C)[C@@H]3CC=C4[C@@H](CC[C@H](O[C@@H]5O[C@H](CO)[C@@H](O)[C@H](O)[C@H]5O)C4(C)C)[C@]3(C)[C@H](O)C[C@]12C [Siamenoside I] (compound dose: 10 uM) , report cell viability.
Response: 1.14

Kindly review the next compound as well.
Query: Assign cell viability to the following record: COC(=O)C1=CO[C@@H](O[C@@H]2O[C@H](CO)[C@@H](O)[C@H](O)[C@H]2O)[C@H]2[C@@H]1C(=O)C[C@@H]2C [Verbenalin] (compound dose: 10 uM)
Response: 0.953

----------
Provide the reported kynurenine production of each item.
test system: MDA-MB-231; assay: kynurenine production, fold change vs DMSO IFNg/TNF control; higher = more kynurenine produced (less inhibition); details: pre-treatment time: 18 h then 24 h IFNg/TNF
Answers are plain numbers.

Worked cases, kynurenine production given:
Query: Look up and report measured kynurenine production for this entry: COc1cc2ccc(=O)oc2cc1O[C@@H]1O[C@H](CO)[C@@H](O)[C@H](O)[C@H]1O [Scopolin] (compound dose: 10 uM)
Response: 1.22

Query: Tell me kynurenine production reported for CC(CCC(OC1OC(CO)C(O)C(O)C1OC1OC(CO)C(O)C(O)C1O)C(C)(C)O)C1CCC2(C)C3CC=C4C(CCC(OC5OC(CO)C(O)C(O)C5O)C4(C)C)C3(C)C(O)CC12C (stereo not given) [Mogroside III-E] (compound dose: 10 uM)
Response: 0.996

Query: Return value of kynurenine production for input O=C(/C=C/c1ccc(O)c(O)c1)O[C@H]1[C@H](O[C@@H]2O[C@H](CO)[C@@H](O)[C@H](O)[C@H]2O)[C@@H](O)[C@H](OCCc2ccc(O)c(O)c2)O[C@@H]1CO [Plantamajoside] (compound dose: 10 uM) , no commentary.
Response: 0.678

Query: Quote kynurenine production reported for C=C1[C@H](OC(C)=O)[C@@H](OC(C)=O)[C@@H](OC(C)=O)C(C)(C)/C=C/[C@H](C)[C@H](OC(C)=O)[C@@]2(O)C[C@@](C)(OC(C)=O)[C@H](OC(=O)c3ccccc3)[C@@H]2[C@H]1OC(C)=O [Jatrophane 2] (compound dose: 10 uM) please.
Response: 0.926

---
Query: Given the compound CC(=O)OC/C=C(C)/C=C/C=C(C)/C=C/C1=C(C)CCCC1(C)C [Retinyl acetate] (compound dose: 10 uM) , write its reported kynurenine production.
Response: 0.753

----------
system: MDA-MB-231; assay: cell viability relative to vehicle unstimulated control (fraction); higher = more viable cells; conditions: pre-treatment time: 18 h then 24 h IFNg/TNF
Lab note: cut-off is 1. Strictly less in cell viability is class 1. Exactly 1 or more is class 0.

Query: Criterion: cell viability strictly below 1. Is it met by C[C@@H]1O[C@@H](O[C@H]2[C@H](O[C@H]3CC[C@]4(C)[C@H]5CC=C6[C@@H]7CC(C)(C)CC[C@]7(C(=O)O)CC[C@@]6(C)[C@]5(C)CC[C@H]4C3(C)C)OC[C@H](O[C@@H]3O[C@H](CO)[C@@H](O)[C@H](O)[C@H]3O)[C@@H]2O)[C@H](O)[C@H](O)[C@H]1O [Hederacolchiside A1] (compound dose: 10 uM) ?
Response: class 1

Further cases:
Query: Please indicate whether the reported cell viability of CCCCC/C=C/C=C/C(=O)O[C@H]1C(C)=C[C@]23C(=O)[C@@H](C=C(CO)[C@@H](O)[C@]12O)[C@H]1[C@@H](C[C@H]3C)C1(C)C [3-O-(2'E,4'EDecadienoyl)ingenol] (compound dose: 10 uM) is strictly below 1.
Response: class 1

Query: Is the reported cell viability for CC(C)=CCC/C(C)=C/CC/C(C)=C/CC/C=C(\C)CC/C=C(\C)CCC=C(C)C [Squalene] (compound dose: 10 uM) strictly below 1?
Response: class 1
